Target: PRMT5/MEP50 complex (Homo sapiens (Human))
Sequence (O14744 2-637): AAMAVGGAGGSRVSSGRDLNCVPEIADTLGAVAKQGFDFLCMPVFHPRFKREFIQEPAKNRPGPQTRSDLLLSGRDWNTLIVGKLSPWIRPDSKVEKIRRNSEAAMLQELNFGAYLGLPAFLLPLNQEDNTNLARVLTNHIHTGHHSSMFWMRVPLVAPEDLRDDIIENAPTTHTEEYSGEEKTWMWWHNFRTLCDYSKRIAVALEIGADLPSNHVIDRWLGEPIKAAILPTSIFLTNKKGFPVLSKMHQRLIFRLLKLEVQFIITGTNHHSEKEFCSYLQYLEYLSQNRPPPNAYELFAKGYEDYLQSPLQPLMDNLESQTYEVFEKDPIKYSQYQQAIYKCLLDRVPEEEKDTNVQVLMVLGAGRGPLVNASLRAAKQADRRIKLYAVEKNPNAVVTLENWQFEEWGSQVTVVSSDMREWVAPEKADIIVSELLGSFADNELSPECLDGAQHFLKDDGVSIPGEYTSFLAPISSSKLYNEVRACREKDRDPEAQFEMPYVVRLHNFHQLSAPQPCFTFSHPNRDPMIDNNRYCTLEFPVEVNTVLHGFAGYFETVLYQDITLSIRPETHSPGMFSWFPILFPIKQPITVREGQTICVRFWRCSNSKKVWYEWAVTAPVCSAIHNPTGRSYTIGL
Sequence (Q9BQA1 2-342 partner): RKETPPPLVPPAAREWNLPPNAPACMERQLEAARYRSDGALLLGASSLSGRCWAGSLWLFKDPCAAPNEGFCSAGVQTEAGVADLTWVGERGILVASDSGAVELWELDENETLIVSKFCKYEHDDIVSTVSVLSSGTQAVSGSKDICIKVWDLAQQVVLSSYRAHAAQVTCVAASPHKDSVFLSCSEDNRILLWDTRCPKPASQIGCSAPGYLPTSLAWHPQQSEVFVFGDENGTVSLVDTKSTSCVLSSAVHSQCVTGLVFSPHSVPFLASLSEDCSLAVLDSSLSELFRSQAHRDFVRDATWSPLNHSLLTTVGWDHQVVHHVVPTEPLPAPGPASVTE
Assay: PRMT5:MEP50 HotSpot Assay (full-length histone H2A substrate, plus and minus MTA)
Type: biochemical
Settings: IC50 + 2 μM MTA, in the presence of 2 μM MTA
Metric: IC50 (nM)
Express the result in nM but write the number alone.

Please look up its IC50: CC(C)Oc1cccc(-c2c(-c3ccc4c(=O)[nH]nc(CN)c4c3)cnn2C)c1C#N [Example 4-176] 8710

Again, but for Cc1cccc2c(C#N)c(-c3c(-c4ccc5c(=O)[nH]nc(CN)c5c4)cnn3C)ccc12 [Example 12-9] 178

Again, but for Cn1ncc(-c2ccc3c(=O)[nH]nc(CN)c3c2)c1-c1cccc(OC2CCC2)c1 [Example 4-137] 810

Again, but for Cn1cc(-c2ccc(C#N)c(-c3c(-c4ccc5c(=O)[nH]nc(CN)c5c4)cnn3C)c2)cn1 [Example 12-6] 730

----------
Biological target: PRMT5/MEP50 complex (Homo sapiens (Human))
Assay: PRMT5:MEP50 FlashPlate Assay (histone H4 peptide substrate, plus and minus MTA)
Assay type: biochemical
Settings: IC50 + 2 μM MTA (nM), in the presence of 2 μM MTA
Lab note: compare IC50 with 100 nM, writing Met if less and Not met if equal or more.

Is it true that IC50 reported for "CCOc1ccc2ncc(-c3ccc4c(=O)[nH]nc(CN)c4c3)n2c1" is less than 100 nM? Met

Again, but for NCc1n[nH]c(=O)c2ccc(-c3cncc(C(O)c4ccccc4)c3)cc12 (stereo not drawn) Met

Again, but for "NCc1n[nH]c(=O)c2ccc(-c3cncc(Oc4ccccc4)c3)cc12" Met

Again, but for "Cc1ccc(Oc2cncc(-c3ccc4c(=O)[nH]nc(CN)c4c3)c2)cc1Cl" Met

Again, but for "Cc1cn2c(-c3ccc4c(=O)[nH]nc(CN)c4c3)cnc2cn1" Not met

Again, but for "NCc1n[nH]c(=O)c2ccc(-c3cnc(C(F)(F)F)nc3)cc12" Not met

Again, but for "N#Cc1ncccc1-c1ccc2c(=O)[nH]nc(CN)c2c1" Not met

Again, but for "Cn1ncc(-c2ccc3c(=O)[nH]nc(CN)c3c2)c1-c1ccc(F)cc1" Met

----------
For each of the compounds below, state its pIC50.
Tested on: HCT116 parental cells
Assay: Proliferation assay (CellTiter-Glo, 10 days of treatment), HCT116 parental
Format: cell-based
Settings: Homo sapiens, HCT-116, 240 h
// scale note: pIC50 = -log10(conc_M); give the bare number

Recorded pIC50 for COc1cnc2ccc(-c3c(-c4ccc5c(=O)[nH]nc(CN)c5c4)cnn3C)c(C#N)c2c1 [Example 4-197] with HCT116 parental cells, please? 5.07

Again, but for Cn1ncc(-c2ccc3c(=O)[nH]nc(CN)c3c2)c1-c1ccc(Cl)c(Cl)c1 [Example 4-140] 5.17

Again, but for Cn1ncc(-c2ccc3c(=O)[nH]nc(CN)c3c2)c1-c1cnn(Cc2ccccc2)c1Cl [Example 4-187] 5.87

Again, but for Cc1cc(C)c(C#N)c(-c2c(-c3ccc4c(=O)[nH]nc(CN)c4c3)cnn2C)c1 [Example 12-11] 5.06

Again, but for Cn1ncc(-c2cc(Cl)c3c(=O)[nH]nc(CN)c3c2)c1-c1cccc(Cl)c1C#N [Example 10-3] 5.07

Again, but for [2H]C([2H])(N)c1n[nH]c(=O)c2ccc(-c3cnn(C)c3-c3ccc4ccccc4c3C#N)cc12 [Example 11-2] 5.71

Again, but for COc1cc(-c2c(-c3ccc4c(=O)[nH]nc(CN)c4c3)cnn2C)c(C#N)c2ccccc12 [Example 4-205] 6.17

Again, but for Cn1ncc(-c2ccc3c(=O)[nH]nc(CN)c3c2)c1-c1ccc2ccccc2n1 [Example 4-182] 5.14

Again, but for CCc1c(Cl)ccc(-c2c(-c3ccc4c(=O)[nH]nc(CN)c4c3)cnn2C)c1C#N [Example 4-199] 5.05

Again, but for CCOc1cccc(-c2c(-c3cc(C)c4c(=O)[nH]nc(CN)c4c3)cnn2C)c1C#N [Example 10-9] 5.01

Again, but for Cn1ncc(-c2ccc3c(=O)[nH]nc(CN)c3c2)c1-c1cc(F)c2ccccc2c1C#N [Example 4-224] 5.11

Where do these numbers come from? They come from patent US11479551B2.
